Assay: Rotarod test of minimal motor impairment
Format: in vivo, mouse
Conditions: mouse, in vivo, ip; CF-1 mice of the MES test; probit analysis
readout: TD50 at 15 min (mg/kg)

>  <smiles_entry>
Cc1ccsc1C(=CCCN(C)[C@H]1CCCC[C@H]1C(=O)O)c1sccc1C

>  <readout>
TD50 at 15 min

>  <endpoint_result>
163

$$$$

* * *

Target: canine BGT1 (Canis lupus familiaris)
Construct: the MDCK II cell line express BGT1 endogenously; endogenous in cells; host or cells: MDCK II
Sequence (P27799 1-614): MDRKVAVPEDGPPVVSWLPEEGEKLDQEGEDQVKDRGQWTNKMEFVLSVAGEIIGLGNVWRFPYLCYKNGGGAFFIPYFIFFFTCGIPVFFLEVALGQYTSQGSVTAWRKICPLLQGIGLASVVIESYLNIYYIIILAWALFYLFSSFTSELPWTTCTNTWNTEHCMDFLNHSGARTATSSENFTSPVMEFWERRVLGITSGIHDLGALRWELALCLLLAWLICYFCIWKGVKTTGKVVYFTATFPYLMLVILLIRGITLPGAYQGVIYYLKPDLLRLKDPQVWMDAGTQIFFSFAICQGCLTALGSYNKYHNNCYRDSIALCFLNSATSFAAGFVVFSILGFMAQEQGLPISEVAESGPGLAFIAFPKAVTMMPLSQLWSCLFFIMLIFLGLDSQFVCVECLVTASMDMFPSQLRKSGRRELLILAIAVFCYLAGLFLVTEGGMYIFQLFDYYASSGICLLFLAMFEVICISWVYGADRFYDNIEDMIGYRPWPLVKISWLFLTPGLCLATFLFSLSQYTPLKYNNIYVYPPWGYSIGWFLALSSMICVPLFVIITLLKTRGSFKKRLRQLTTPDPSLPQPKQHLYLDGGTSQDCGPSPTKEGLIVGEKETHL
Test: [3H]GABA uptake at canine BGT1 endogenously expressed in MDCK II cells
Type: cell-based
Conditions: IC50, high affinity component, biphasic fit, 100 nM [3H]GABA, 15 min
readout: IC50 (nM)

>  <smiles_entry>
Cc1ccsc1C(=CCCN(C)[C@H]1CCCC[C@H]1C(=O)O)c1sccc1C

>  <endpoint_result>
100

$$$$

* * *

Target: mGAT3 (Mus musculus, UniProt P31650)
Sequence (P31650 whole entry): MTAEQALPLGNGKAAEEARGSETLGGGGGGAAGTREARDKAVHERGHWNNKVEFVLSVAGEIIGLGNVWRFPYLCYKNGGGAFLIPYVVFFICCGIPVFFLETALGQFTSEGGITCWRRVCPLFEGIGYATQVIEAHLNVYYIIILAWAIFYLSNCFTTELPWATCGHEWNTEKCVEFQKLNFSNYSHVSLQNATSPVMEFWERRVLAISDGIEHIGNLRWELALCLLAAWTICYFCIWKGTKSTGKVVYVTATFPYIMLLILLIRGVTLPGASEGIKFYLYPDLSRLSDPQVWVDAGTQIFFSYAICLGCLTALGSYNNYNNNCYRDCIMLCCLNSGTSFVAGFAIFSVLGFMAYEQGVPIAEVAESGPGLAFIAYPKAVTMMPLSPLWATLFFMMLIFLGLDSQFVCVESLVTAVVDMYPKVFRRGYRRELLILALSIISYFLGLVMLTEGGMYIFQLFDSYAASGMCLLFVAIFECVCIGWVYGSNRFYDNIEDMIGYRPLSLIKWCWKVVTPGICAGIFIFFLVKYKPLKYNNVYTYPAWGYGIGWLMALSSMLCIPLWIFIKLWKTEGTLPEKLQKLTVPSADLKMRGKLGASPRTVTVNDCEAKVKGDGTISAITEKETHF
Test: [3H]GABA uptake at mGAT3 stably expressed in HEK-293 cells
Conditions: ambiguous fit, N=3
Protocol: The HEK-293 and Flp-In CHO cell lines stably expressing mouse (m) and human (h) GATs, respectively, have been described previously and were cultured accordingly. The tsA201 cell line was used for transient expression while the MDCK II cell line express BGT1 endogenously. […]
pIC50: −log10 of the molar value.

>  <compound>
Cc1ccsc1C(=CCCN(C)[C@H]1CCCC[C@H]1C(=O)O)c1sccc1C [SBV2-114]

>  <pIC50>
< 3.00

$$$$

* * *

Target: canine BGT1 (Canis lupus familiaris)
Construct: the MDCK II cell line express BGT1 endogenously; endogenous in cells; host or cells: MDCK II
Assay: [3H]GABA uptake at canine BGT1 endogenously expressed in MDCK II cells
Format: cell-based
Settings: read-out: IC50, low affinity component, biphasic fit, 100 nM [3H]GABA, 15 min
readout: IC50 (µM)

>  <smiles_entry>
Cc1ccsc1C(=CCCN(C)[C@H]1CCCC[C@H]1C(=O)O)c1sccc1C

>  <assayed_system>
canine BGT1 (Canis lupus familiaris)

>  <result_unit>
µM

>  <endpoint_result>
251

$$$$

* * *

Target: mGAT2 (Mus musculus, UniProt P31649)
Sequence (P31649 whole entry): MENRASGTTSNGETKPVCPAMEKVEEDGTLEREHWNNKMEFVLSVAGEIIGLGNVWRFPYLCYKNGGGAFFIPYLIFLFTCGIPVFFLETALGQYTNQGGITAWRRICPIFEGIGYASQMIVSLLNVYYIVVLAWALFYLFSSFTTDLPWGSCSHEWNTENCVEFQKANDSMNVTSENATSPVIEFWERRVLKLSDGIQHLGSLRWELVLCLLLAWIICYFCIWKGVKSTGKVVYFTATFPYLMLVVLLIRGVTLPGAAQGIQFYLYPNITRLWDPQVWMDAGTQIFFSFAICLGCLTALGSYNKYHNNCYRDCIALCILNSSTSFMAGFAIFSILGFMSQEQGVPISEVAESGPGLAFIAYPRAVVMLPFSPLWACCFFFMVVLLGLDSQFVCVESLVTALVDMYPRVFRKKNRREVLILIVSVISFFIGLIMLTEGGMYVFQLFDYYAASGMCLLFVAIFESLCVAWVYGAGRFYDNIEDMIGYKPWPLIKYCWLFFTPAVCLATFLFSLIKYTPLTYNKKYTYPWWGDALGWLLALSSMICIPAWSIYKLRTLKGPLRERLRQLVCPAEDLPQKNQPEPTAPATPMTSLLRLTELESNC
Assay: [3H]GABA uptake at mGAT2 stably expressed in HEK-293 cells
pIC50: −log10 of the molar value.

>  <compound>
Cc1ccsc1C(=CCCN(C)[C@H]1CCCC[C@H]1C(=O)O)c1sccc1C [SBV2-114]

>  <pIC50>
< 3.00

$$$$

* * *

Target: hBGT1 (Homo sapiens, UniProt P48065)
Construct: expressed in transfected cells; host or cells: tsA201 (transient)
Sequence (P48065 1-614): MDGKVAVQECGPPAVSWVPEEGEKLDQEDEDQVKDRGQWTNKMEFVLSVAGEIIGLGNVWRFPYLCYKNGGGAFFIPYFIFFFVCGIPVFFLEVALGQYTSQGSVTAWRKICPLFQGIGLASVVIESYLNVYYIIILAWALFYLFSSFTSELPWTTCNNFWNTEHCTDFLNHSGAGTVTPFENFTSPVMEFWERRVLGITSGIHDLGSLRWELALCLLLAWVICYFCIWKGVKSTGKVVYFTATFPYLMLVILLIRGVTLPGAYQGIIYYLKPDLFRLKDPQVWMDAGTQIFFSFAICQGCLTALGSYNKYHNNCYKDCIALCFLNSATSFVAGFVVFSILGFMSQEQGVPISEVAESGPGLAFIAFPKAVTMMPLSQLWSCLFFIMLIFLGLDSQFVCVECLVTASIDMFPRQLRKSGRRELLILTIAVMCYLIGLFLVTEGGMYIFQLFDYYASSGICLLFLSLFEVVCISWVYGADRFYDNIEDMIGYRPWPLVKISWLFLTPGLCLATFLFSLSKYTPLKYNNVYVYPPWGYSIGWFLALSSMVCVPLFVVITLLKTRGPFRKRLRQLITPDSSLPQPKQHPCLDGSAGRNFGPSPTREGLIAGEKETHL
Experiment: [3H]GABA uptake at hBGT1 transiently expressed in tsA201 cells
Type: cell-based
Details: IC50, high affinity component, control: 30 min pre-incubation at 37 °C in assay buffer
pIC50: −log10 of the molar value.
readout: pIC50

>  <smiles_entry>
Cc1ccsc1C(=CCCN(C)[C@H]1CCCC[C@H]1C(=O)O)c1sccc1C

>  <readout>
pIC50

>  <endpoint_result>
5.21

$$$$

* * *

Target: canine BGT1 (Canis lupus familiaris, UniProt P27799)
Construct: the MDCK II cell line express BGT1 endogenously; endogenous in cells; host or cells: MDCK II
Experiment: [3H]GABA uptake at canine BGT1 endogenously expressed in MDCK II cells
Format: cell-based
Conditions: pIC50 ± S.E.M., high affinity component, biphasic fit, 100 nM [3H]GABA, 15 min

>  <smiles_entry>
Cc1ccsc1C(=CCCN(C)[C@H]1CCCC[C@H]1C(=O)O)c1sccc1C

>  <IC50, nM>
105

$$$$

* * *

Target: hBGT1 (Homo sapiens)
Construct: expressed in transfected cells; host or cells: tsA201 (transient)
Test: [3H]GABA uptake at hBGT1 transiently expressed in tsA201 cells
Type: cell-based
Settings: proportion of maximal response due to the more potent phase; 8 μg cDNA
The following compounds are shown together with reported Frac values.

>  <compound>
Cc1ccsc1C(=CCCN(C)[C@@H]1CCCC[C@@H]1C(=O)O)c1sccc1C

>  <Frac>
0.28

$$$$
>  <compound>
CN(CCC=C1c2ccccc2CCc2ccccc21)[C@@H]1CCCC[C@@H]1C(=O)O

>  <Frac>
0.26

$$$$
>  <compound>
Cc1ccsc1C(=CCCN(C)[C@H]1CCCC[C@H]1C(=O)O)c1sccc1C

>  <Frac>
0.42

$$$$
>  <compound>
Cc1ccsc1C(CCCN(C)[C@@H]1CCCc2onc(O)c21)c1sccc1C [(R)-EF1502, reference compound]

>  <Frac>
0.30

$$$$
>  <compound>
Cc1ccsc1C(=CCCN(C)[C@@H]1CCCC[C@H]1C(=O)O)c1sccc1C

>  <Frac>
0.19

$$$$

* * *

Molecular target: hBGT1 (Homo sapiens)
Construct: expressed in transfected cells; host or cells: tsA201 (transient)
Test: [3H]GABA uptake at hBGT1 transiently expressed in tsA201 cells
Type: cell-based
Details: read-out: IC50, low affinity component; control: 30 min pre-incubation at 37 °C in assay buffer
readout: IC50 (µM)

>  <compound>
Cc1ccsc1C(=CCCN(C)[C@H]1CCCC[C@H]1C(=O)O)c1sccc1C [SBV2-114]

>  <readout>
IC50

>  <result_unit>
µM

>  <endpoint_result>
507

$$$$

* * *

Molecular target: mBGT1 (Mus musculus, UniProt P31651)
Construct: expressed in transfected cells
Sequence (P31651 whole entry): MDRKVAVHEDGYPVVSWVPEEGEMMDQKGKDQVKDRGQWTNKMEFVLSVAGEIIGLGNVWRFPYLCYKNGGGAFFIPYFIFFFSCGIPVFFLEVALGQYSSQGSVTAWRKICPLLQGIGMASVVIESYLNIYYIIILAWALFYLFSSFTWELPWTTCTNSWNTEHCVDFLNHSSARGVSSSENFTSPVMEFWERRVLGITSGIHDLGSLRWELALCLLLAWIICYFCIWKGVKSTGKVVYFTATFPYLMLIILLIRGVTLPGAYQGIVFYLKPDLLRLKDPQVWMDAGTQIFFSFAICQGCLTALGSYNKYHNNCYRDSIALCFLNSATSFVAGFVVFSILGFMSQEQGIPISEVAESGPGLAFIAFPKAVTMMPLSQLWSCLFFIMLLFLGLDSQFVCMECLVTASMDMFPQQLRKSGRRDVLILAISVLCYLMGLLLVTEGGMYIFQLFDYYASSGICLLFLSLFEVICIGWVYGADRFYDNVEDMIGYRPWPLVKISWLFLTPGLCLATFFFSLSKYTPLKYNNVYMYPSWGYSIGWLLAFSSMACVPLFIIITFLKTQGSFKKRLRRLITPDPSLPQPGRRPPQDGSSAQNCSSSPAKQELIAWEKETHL
Experiment: [3H]GABA uptake at mBGT1 stably expressed in HEK-293 cells
Format: cell-based

>  <smiles_entry>
Cc1ccsc1C(=CCCN(C)[C@H]1CCCC[C@H]1C(=O)O)c1sccc1C

>  <assayed_system>
mBGT1 (Mus musculus, UniProt P31651)

>  <IC50 (µM)>
3.8

$$$$

* * *

Biological target: hBGT1 (Homo sapiens)
Construct: expressed in transfected cells; host or cells: tsA201 (transient)
Sequence (P48065 1-614): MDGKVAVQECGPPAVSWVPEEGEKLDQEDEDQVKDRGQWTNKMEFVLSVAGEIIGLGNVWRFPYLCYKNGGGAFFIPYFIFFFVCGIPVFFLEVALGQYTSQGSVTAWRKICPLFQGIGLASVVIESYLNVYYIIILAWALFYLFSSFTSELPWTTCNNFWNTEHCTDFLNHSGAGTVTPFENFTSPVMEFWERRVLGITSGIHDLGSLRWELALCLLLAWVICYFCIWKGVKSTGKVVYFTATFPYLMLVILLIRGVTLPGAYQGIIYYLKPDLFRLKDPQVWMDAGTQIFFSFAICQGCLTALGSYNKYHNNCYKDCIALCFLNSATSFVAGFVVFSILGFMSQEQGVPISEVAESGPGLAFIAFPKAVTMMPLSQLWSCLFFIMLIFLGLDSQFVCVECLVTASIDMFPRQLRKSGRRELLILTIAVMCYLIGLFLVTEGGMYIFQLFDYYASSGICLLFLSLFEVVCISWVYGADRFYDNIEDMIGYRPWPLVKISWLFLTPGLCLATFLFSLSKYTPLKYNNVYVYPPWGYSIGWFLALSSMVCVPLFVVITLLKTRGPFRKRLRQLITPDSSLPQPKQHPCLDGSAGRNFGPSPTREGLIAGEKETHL
Assay: [3H]GABA uptake at hBGT1 transiently expressed in tsA201 cells
Format: cell-based
Conditions: read-out: IC50, low affinity component; 2 μg cDNA (n=2); biphasic fit
readout: IC50

>  <smiles_entry>
Cc1ccsc1C(=CCCN(C)[C@H]1CCCC[C@H]1C(=O)O)c1sccc1C

>  <readout>
IC50

>  <endpoint_result>
518 µM

$$$$
